This collection of values is drawn from PubChem BioAssay.

# METHOD SUMMARY: binders of probe aFST on microarray, primary screen, stem cell growth factor project, biochemical, small-molecule microarray, fluorescence 635/667 (AID 1086);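 note: score merges 667 nm fluorescence with signal-to-noise of each printed compound spot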
# EXPERIMENTAL PARAMETERS: higher = more signal
Quick reference for composite z-score among some compounds
QUANTITY MEASURED: composite z-score

* C=CC[C@@H]1C=C[C@H](ON=C(C)CCC(=O)OC[C@H]2O[C@H](c3ccccc3)C=C[C@@H]2Oc2ccc(OC)cc2)[C@@H](CO)O1 | -0.303
* COc1ccc(O[C@H]2C=C[C@@H](c3ccccc3)O[C@@H]2CON=CC[C@@H]2C=C[C@H](OC(C)=O)[C@@H](COC(C)=O)O2)cc1 | 0.388
* COC(=O)[C@@H]1CC[C@H](C)[C@@H](c2ccc(C)cc2)N1C(=O)c1ccc(C=NOC[C@@H](C)[C@H](OCc2ccccc2)C(C)C)cc1 | 0.38
* CCOC(=O)[C@H](CC(C)C)NC(=O)CCC1CC(OC(=O)NCCc2ccc(F)cc2)CC2(CCCC(COC(=O)NCCC(C)C)O2)O1 (some centres undefined) | -0.128
* CCCNC(=O)OC[C@H]1O[C@H](CCON=C(C)CCC(=O)OC[C@H]2O[C@H](c3ccccc3)C=C[C@@H]2Oc2ccc(OC)cc2)C=C[C@@H]1Oc1ccc(OC)cc1 | 0.0494
* C=CC[C@@H]1C=C[C@H](ON=C(C)CCN2CCc3nc(-c4ccccc4)c(-c4ccccc4)cc3C2)[C@@H](CO)O1 | 0.197
* CO[C@@H]1COC(=O)[C@@H](C)COC(=O)[C@@H](C)NC(=O)CC=C[C@@H]1C | -0.235
* COC(=O)[C@@H]1CC[C@H](C)[C@@H](c2ccc(C)cc2)N1C(=O)c1ccc(C=NO[C@@H](C)c2cn([C@H](CO)Cc3ccccc3)nn2)cc1 | 0.517
* CO[C@H]1COC(=O)CCC[C@@H](C)[C@H](OC)COC(=O)[C@@H]2CCCN2C(=O)CC=C[C@@H]1C | -0.194
* Cc1ccc(S(=O)(=O)N[C@H]2COC(=O)CC=C[C@H](C)[C@@H](NS(=O)(=O)c3ccc(C)cc3)COC(=O)CC=C[C@@H]2C)cc1 | -0.118
* COC(=O)NCC=Cc1nc(CCCO)co1 | 0.0512
* O=C1[C@H]2[C@H]3[C@H](O)[C@H](O)CC(=NOC[C@@H](O)COCc4ccco4)[C@H]3CC[C@H]2C(=O)N1c1ccc(F)cc1F | -0.999
* CC(C)(C)N1C(=O)[C@H]2[C@H]3[C@H](O)[C@H](O)CC(=NOCc4ccccc4)[C@H]3CC[C@H]2C1=O | 0.687
* C#CCCCON=C1C[C@@H](O)[C@@H](O)[C@@H]2[C@@H]3C(=O)N(C(C)(C)C)C(=O)[C@@H]3CC[C@@H]12 | 0.987
* O=C1CCCC(C2=CCCCC2=O)C1 (centres undefined) | 0.0915
* CC(C)CON=C1C[C@@H](O)[C@@H](O)[C@@H]2[C@@H]3C(=O)N(c4ccc(F)cc4F)C(=O)[C@@H]3CC[C@H]12 | 0.803
* CC(C)=CCCC(C)=CCON=C1C[C@@H](O)[C@@H](O)[C@@H]2[C@@H]3C(=O)N(C(C)(C)C)C(=O)[C@@H]3CC[C@@H]12 | 0.13
* CCOC(=O)CCN1C(=O)[C@H]2[C@H]3[C@H](O)[C@H](O)CC(=NNC(=O)OCc4ccccc4)[C@@H]3CC[C@H]2C1=O | 0.111
* COc1cccc([C@H]2Oc3ccc(OC)cc3C(=NO[C@@H]3O[C@H](COC(C)=O)[C@@H](OC(C)=O)[C@H](OC(C)=O)[C@H]3OC(C)=O)[C@@H]2O)c1 | 0.198
* CCOC(=O)[C@H](CC(C)C)NC(=O)CCC1CC(OC(=O)NCc2cccc3ccccc23)CC2(CCCC(COC(=O)NCC3CCCCC3)O2)O1 (some centres undefined) | 0.615
* CCOC(=O)NN=C1C[C@@H](O)[C@@H](O)[C@@H]2[C@@H]3C(=O)N(c4cccc(Oc5ccccc5)c4)C(=O)[C@@H]3CC[C@H]12 | 0.0755
* CSCC[C@@H]1NC(=O)CC=C[C@@H](C)COC(=O)[C@@H](C)COC1=O | -0.485
* CC(C)=CCCC(C)=CCON=C1C[C@@H](O)[C@@H](O)[C@@H]2[C@@H]3C(=O)N(c4ccc(F)cc4F)C(=O)[C@@H]3CC[C@H]12 | 0.573
* CO[C@H]1COC(=O)[C@@H](C)COC(=O)[C@H](C)NC(=O)CC=C[C@H]1C | 0.101
* CC(C)(C)N1C(=O)[C@H]2[C@H]3[C@H](O)[C@H](O)CC(=O)[C@@H]3CC[C@H]2C1=O | 0.723
* CC(C)=CCCC(C)=CCON=C1C[C@@H](O)[C@@H](O)[C@@H]2[C@@H]3C(=O)N(Cc4ccccc4)C(=O)[C@@H]3CC[C@H]12 | 0.342
* COC(=O)C=CCCc1coc(C=CCNC(=O)OC)n1 | 1.04
* COC(=O)[C@H]1[C@@H](O)[C@@]2(O)c3ccccc3O[C@@]2(c2ccccc2)[C@@H]1c1ccccc1 | 0.0643
* CCOC(=O)NN=C1C[C@@H](O)[C@@H](O)[C@@H]2[C@@H]3C(=O)N(C(C)(C)C)C(=O)[C@@H]3CC[C@H]12 | 0.497

====

# TESTED SYSTEM: Follistatin (Homo sapiens) (UniProt P19883)
# Sequence (P19883 whole entry, looked up): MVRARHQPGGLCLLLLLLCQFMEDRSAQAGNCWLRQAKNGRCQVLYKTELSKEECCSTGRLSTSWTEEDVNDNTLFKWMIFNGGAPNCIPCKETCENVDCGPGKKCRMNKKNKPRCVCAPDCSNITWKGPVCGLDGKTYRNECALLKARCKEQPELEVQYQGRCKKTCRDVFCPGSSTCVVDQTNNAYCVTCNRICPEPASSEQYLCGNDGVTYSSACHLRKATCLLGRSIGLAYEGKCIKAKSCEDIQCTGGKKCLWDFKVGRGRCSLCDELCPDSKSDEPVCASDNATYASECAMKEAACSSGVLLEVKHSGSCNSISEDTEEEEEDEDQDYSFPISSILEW
# METHOD SUMMARY: follistatin binders on small-molecule microarrays, primary screen, biochemical, small-molecule microarray, 635/667 nm fluorescence (AID 1132)
# EXPERIMENTAL PARAMETERS: FST binding, 635 nm fluorescence, higher = more signal
Quick reference for composite z-score among some compounds
QUANTITY MEASURED: composite z-score

* C[C@@H]1NC(=O)[C@@H](C)COC(=O)[C@H](C)NC(=O)[C@@H](C)COC1=O | 0.172
* CCCNC(=O)OC[C@H]1O[C@H](CCON=C(C)CCC(=O)OC[C@H]2O[C@H](c3ccccc3)C=C[C@@H]2Oc2ccc(OC)cc2)C=C[C@@H]1Oc1ccc(OC)cc1 | -0.342
* C=CC[C@@H]1C=C[C@H](ON=C2[C@H]3CCn4c(=O)n(-c5ccccc5)c(=O)n4[C@H]3[C@H](O)[C@@H]3O[C@H]23)[C@@H](CO)O1 | 0.489
* COc1cccc([C@@H]2Oc3ccc(OC)cc3C(=O)[C@H]2O)c1 | 0.536
* Cc1ccc(S(=O)(=O)N[C@@H]2COC(=O)[C@@H](C)COC(=O)CC=C[C@H]2C)cc1 | 0.516
* CCOC(=O)NN=C1C[C@@H](O)[C@@H](O)[C@@H]2[C@@H]3C(=O)N(Cc4ccc5c(c4)OCO5)C(=O)[C@@H]3CC[C@H]12 | -0.176
* CC(=O)OC[C@H]1OC(ON=CC[C@@H]2C=C[C@H](OC(C)=O)[C@@H](COC(C)=O)O2)[C@H](OC(C)=O)[C@@H](OC(C)=O)[C@@H]1OC(C)=O (stereo not given in full) | -0.494
* CON=C[C@@H](NS(=O)(=O)c1ccc(C)cc1)[C@H](C)C=CCC(=O)OC | 0.718
* CON=C[C@@H](C)[C@H](OCc1ccccc1)C(C)C | 0.359
* O=C(NN=C1C[C@@H](O)[C@@H](O)[C@@H]2[C@@H]3C(=O)N(Cc4ccccc4)C(=O)[C@@H]3CC[C@@H]12)OCc1ccccc1 | 0.165
* CCOC(=O)[C@H](Cc1ccccc1)NC(=O)CCC1CC(OC(=O)NCc2ccc3c(c2)OCO3)CC2(CCCC(COC(=O)NCCc3ccccc3OC)O2)O1 (stereo not given in full) | 1.07
* CO[C@@H]1COC(=O)[C@@H]2CCCN2C(=O)[C@@H](C)COC(=O)CC=C[C@H]1C | 0.365
* O=C1C[C@@H](O)[C@@H](O)[C@@H]2[C@@H]3C(=O)N(C[C@@H]4CCCO4)C(=O)[C@@H]3CC[C@@H]12 | 0.848
* CC(CCN1CCCCc2nc(C)c(C)cc21)=NO[C@@H](C)c1cn([C@H](CO)Cc2ccccc2)nn1 | 0.915
* COC(=O)[C@@H]1CC[C@H](C)[C@@H](c2ccc(C)cc2)N1C(=O)c1ccc(C=NOC[C@@H](C)[C@H](OCc2ccccc2)C(C)C)cc1 | 0.915

====

Quick reference for composite z-score among some compounds
# METHOD SUMMARY: small-molecule microarray binders of probe aCHRDL2, primary screen, biochemical, biotinylated probe, 635/667 nm fluorescence (AID 1100)
# EXPERIMENTAL PARAMETERS: higher = more signal
QUANTITY MEASURED: composite z-score

• CCC(=O)[C@@]1(O)C(=O)N2C(=C3C(=O)OCC[C@@H]31)N(Cc1ccccc1)C(C)=C(C(=O)OC)[C@H]2c1ccccc1 = -0.624
• Cc1ccc(S(=O)(=O)N[C@@H]2COC(=O)[C@@H](C)COC(=O)CC=C[C@H]2C)cc1 = -0.352
• CC(C)CCN1CCc2nc(COc3ccccc3)c3c(c2C1)CO[C@@H](C)C3 = 0.844
• COC(=O)CC=C[C@@H](C)[C@@H](C=NO[C@@H]1O[C@H](COC(C)=O)[C@@H](OC(C)=O)[C@H](OC(C)=O)[C@H]1OC(C)=O)NS(=O)(=O)c1ccc(C)cc1 = -0.645
• CC(C)CON=C1C[C@@H](O)[C@@H](O)[C@@H]2[C@@H]3C(=O)N(C4CCCCC4)C(=O)[C@@H]3CC[C@@H]12 = -0.198
• CCOC(=O)[C@H](Cc1ccccc1)NC(=O)CCC1CC(OC(=O)NCCc2ccc(F)cc2)CC2(CCCC(COC(=O)NCCc3ccccc3OC)O2)O1 (some centres undefined) = -0.556
• COC(=O)CC=C[C@@H](C)[C@@H](C=NOCC[C@@H]1C=C[C@H](OC(C)=O)[C@@H](COC(C)=O)O1)NS(=O)(=O)c1ccc(C)cc1 = -0.331
• CCOC(=O)NN=C1C[C@@H](O)[C@@H](O)[C@@H]2[C@@H]3C(=O)N(c4cccc(Oc5ccccc5)c4)C(=O)[C@@H]3CC[C@@H]12 = -0.187
• CCOC(=O)[C@H](CC(C)C)NC(=O)CCC1CC(OC(=O)NCc2cccc3ccccc23)CC2(CCCC(COC(=O)NCCOC)O2)O1 (some centres undefined) = -0.401
• CCOC(=O)[C@H](CC(C)C)NC(=O)CCC1CC(OC(=O)NCCc2ccc(F)cc2)CC2(CCCC(COC(=O)NCC(c3ccccc3)c3ccccc3)O2)O1 (some centres undefined) = -0.437
• CC(C)CON=C1C[C@@H](O)[C@@H](O)[C@@H]2[C@@H]3C(=O)N(c4cccc(Oc5ccccc5)c4)C(=O)[C@@H]3CC[C@@H]12 = -0.446
• CCc1cc2c(nc1CC)CCN(CCC(C)=NOC[C@H]1O[C@H](c3ccccc3)C=C[C@@H]1Oc1ccc(OC)cc1)C2 = 0.0691
• CCOC(=O)[C@H](CC(C)C)NC(=O)CCC1CC(OC(=O)NCc2ccc3c(c2)OCO3)CC2(CCCC(COC(=O)NCC3CCCCC3)O2)O1 (some centres undefined) = -0.62
• CC(C)=CCCC(C)=CCON=C1C[C@@H](O)[C@@H](O)[C@@H]2[C@@H]3C(=O)N(c4cccc(Oc5ccccc5)c4)C(=O)[C@@H]3CC[C@@H]12 = -0.209
• COC(=O)[C@H](C)NC(=O)CCC1CC(OC(=O)NCc2ccc3c(c2)OCO3)CC2(CCCC(COC(=O)NCC3CCCCC3)O2)O1 (some centres undefined) = -0.647
• CO[C@H](C1CCCCC1)[C@H](C)C=CCC(=O)OCCCc1ccccc1 = -0.708
• CO[C@H]1COC(=O)[C@@H](Cc2ccccc2)NC(=O)[C@@H](C)COC(=O)CCC[C@@H]1C = -0.539
• O=C(NN=C1C[C@@H](O)[C@@H](O)[C@@H]2[C@@H]3C(=O)N(C4CCCCC4)C(=O)[C@@H]3CC[C@H]12)OCc1ccccc1 = 1.07
• CO[C@H]1COC(=O)CC=C[C@H](C)[C@@H](OC)COC(=O)[C@@H](C)COC(=O)CC=C[C@@H]1C = -1.66
• COC(=O)[C@H](C)NC(=O)CCC1CC(OC(=O)NCCc2ccc(F)cc2)CC2(CCCC(COC(=O)NCCC(C)C)O2)O1 (some centres undefined) = -0.269
• Cn1c(=O)n2n(c1=O)[C@H]1[C@H](O)[C@@H]3O[C@@H]3C(=NOCc3ccccc3)[C@H]1CC2 = -0.374
• C=CC[C@@H]1C=C[C@H](ON=C(C)CCN2CCc3nc(-c4ccccc4)c(-c4ccccc4)cc3C2)[C@@H](CO)O1 = -0.574
• COc1ccc(O[C@@H]2[C@H](O)CO[C@H]2C=Cc2ccccc2)cc1 = -0.379
• CC(C)(C)N1C(=O)[C@H]2[C@H]3[C@H](O)[C@H](O)CC(=O)[C@@H]3CC[C@H]2C1=O = -0.658
• CON=CC[C@@H]1C=C[C@H](OC(C)=O)[C@@H](COC(C)=O)O1 = -0.0937
• O=C1[C@H]2[C@H]3[C@H](O)[C@H](O)CC(=NOC[C@@H](O)COCc4ccco4)[C@H]3CC[C@H]2C(=O)N1c1ccc(F)cc1F = -0.901
• COC(=O)CC=C[C@@H](C)[C@@H](C=NO[C@@H](C)c1cn([C@H](CO)Cc2ccccc2)nn1)NS(=O)(=O)c1ccc(C)cc1 = -0.668
• C=COC[C@@H]1CN2[C@@H](CC[C@@H](C)[C@@H]2c2ccc(Br)cc2)C(=O)O1 = -0.0905
• CCOC(=O)[C@H](CC(C)C)NC(=O)CCC1CC(OC(=O)NCCc2ccc(F)cc2)CC2(CCCC(COC(=O)NCC3CCCCC3)O2)O1 (some centres undefined) = -0.283
